For each record, write down the corresponding relative viability.
# Tested on: EBC-1
# method: relative viability (nuclei count vs DMSO), 5 days (fraction); higher = more cells survive
# experimental-context: first compound 0.6325 µM
Give bare numbers.

Provide each entry's relative viability from the list below.
1. COCC1(CO)C(=O)C2CCN1CC2 (stereo not given) [PRIMA-1MET] + CC1(C)CCC(c2ccc(Cl)cc2)=C(CN2CCN(c3ccc(C(=O)NS(=O)(=O)c4ccc(N[C@H](CCN5CCOCC5)CSc5ccccc5)c(S(=O)(=O)C(F)(F)F)c4)cc3)CC2)C1 [Navitoclax] (partner 0.5 µM)
2. COCC1(CO)C(=O)C2CCN1CC2 (stereo not given) [PRIMA-1MET] + COc1cc2c(Oc3ccc(NC(=O)C4(C(=O)Nc5ccc(F)cc5)CC4)cc3F)ccnc2cc1OCCCN1CCOCC1 [Foretinib] (partner 0.25 µM)
3. COCC1(CO)C(=O)C2CCN1CC2 (stereo not given) [PRIMA-1MET] + Cc1nc(NC(=O)N2CCC[C@H]2C(N)=O)sc1-c1ccnc(C(C)(C)C(F)(F)F)c1 [Alpelisib] (partner 2 µM)
4. COCC1(CO)C(=O)C2CCN1CC2 (stereo not given) [PRIMA-1MET] + CS(=O)(=O)CCNCc1ccc(-c2ccc3ncnc(Nc4ccc(OCc5cccc(F)c5)c(Cl)c4)c3c2)o1 [Lapatinib] (partner 2 µM)
5. COCC1(CO)C(=O)C2CCN1CC2 (stereo not given) [PRIMA-1MET] + C[C@]1(O)C[C@@H](c2nc(-c3ccc4ccc(-c5ccccc5)nc4c3)c3c(N)nccn32)C1 [Linsitinib] (partner 1 µM)

Output:
0.37
0.0986
0.921
0.214
0.972

* * *

Field: relative viability. Provide a value for each of the compounds that follow.
# System: NCI-H1975
# method: relative viability (nuclei count vs DMSO), 5 days (fraction); higher = more cells survive
# experimental-context: first compound 0.6325 µM

# count of solved cases: 2
Input: Write down the reported relative viability of COCC1(CO)C(=O)C2CCN1CC2 (stereo not drawn) [PRIMA-1MET] + CC(=O)Nc1cccc(-n2c(=O)n(C3CC3)c(=O)c3c(Nc4ccc(I)cc4F)n(C)c(=O)c(C)c32)c1 [Trametinib] (partner 0.02 µM) , test system: NCI-H1975.
Output: 0.232

Input: Field: relative viability (NCI-H1975). Entry: COCC1(CO)C(=O)C2CCN1CC2 (stereo not drawn) [PRIMA-1MET] + Cc1cc(Nc2cc(N3CCN(C)CC3)nc(Sc3ccc(NC(=O)C4CC4)cc3)n2)n[nH]1 [Tozasertib] (partner 0.1 µM)
Output: 0.726

***
Input: # get_value(readout= relative viability, system= NCI-H1975) for COCC1(CO)C(=O)C2CCN1CC2 (stereo not drawn) [PRIMA-1MET] + CCNC(=O)c1noc(-c2cc(C(C)C)c(O)cc2O)c1-c1ccc(CN2CCOCC2)cc1 [Luminespib] (partner 0.01 µM)
Output: 0.171

* * *

# Tested on: HARA
# method: relative viability (nuclei count vs DMSO), 5 days (fraction); higher = more cells survive
# experimental-context: first compound 8 µM
Note to self: use t only for relative viability readings below 0.7; a reading exactly at 0.7 still gets f.

Input: Determine if O=c1cc(-c2cccc3c2Sc2ccccc2S3)oc(N2CCOCC2)c1 + Nc1ncn([C@H]2C[C@H](O)[C@@H](CO)O2)c(=O)n1 [Decitabine] (partner 2 µM) shows relative viability strictly lower than 0.7.
Output: t

Input: Please determine if O=c1cc(-c2cccc3c2Sc2ccccc2S3)oc(N2CCOCC2)c1 + C[C@]1(O)C[C@@H](c2nc(-c3ccc4ccc(-c5ccccc5)nc4c3)c3c(N)nccn32)C1 [Linsitinib] (partner 1 µM) is below 0.7 in terms of relative viability.
Output: f

Input: relative viability strictly < 0.7 for this compound? O=c1cc(-c2cccc3c2Sc2ccccc2S3)oc(N2CCOCC2)c1 + CCNC(=O)c1noc(-c2cc(C(C)C)c(O)cc2O)c1-c1ccc(CN2CCOCC2)cc1 [Luminespib] (partner 0.01 µM)
Output: f

Input: Would you kindly verify if relative viability of O=c1cc(-c2cccc3c2Sc2ccccc2S3)oc(N2CCOCC2)c1 + Cc1nc(Nc2ncc(C(=O)Nc3c(C)cccc3Cl)s2)cc(N2CCN(CCO)CC2)n1 [Dasatinib] (partner 0.075 µM) is strictly less than 0.7?
Output: t

Others:
Input: A record lists O=c1cc(-c2cccc3c2Sc2ccccc2S3)oc(N2CCOCC2)c1 + CC1(C)CCC(c2ccc(Cl)cc2)=C(CN2CCN(c3ccc(C(=O)NS(=O)(=O)c4ccc(N[C@H](CCN5CCOCC5)CSc5ccccc5)c(S(=O)(=O)C(F)(F)F)c4)cc3)CC2)C1 [Navitoclax] (partner 0.5 µM) . Is its relative viability below 0.7?
Output: f

* * *

# System: LOU-NH91
# method: relative viability (nuclei count vs DMSO), 5 days (fraction); higher = more cells survive
# experimental-context: first compound 0.8 µM
Please respond with reported relative viability for every item in the list.

Guide cases for relative viability, answers given:
Input: // returns reported relative viability for input COc1nc(C)cnc1NS(=O)(=O)c1cccnc1-c1ccc(-c2nnco2)cc1 [Zibotentan] + NC(=O)Nc1cc(-c2cccc(F)c2)sc1C(=O)N[C@H]1CCCNC1 [AZD7762] (partner 0.2 µM)
Output: 0.773

Input: Consider the molecule O=c1cc(-c2cccc3c2Sc2ccccc2S3)oc(N2CCOCC2)c1 + COc1cc2c(Oc3ccc(NC(=O)C4(C(=O)Nc5ccc(F)cc5)CC4)cc3F)ccnc2cc1OCCCN1CCOCC1 [Foretinib] (partner 0.25 µM) and give its measured relative viability.
Output: 0.833

Now turn to the next molecule.
Input: Item O=c1cc(-c2cccc3c2Sc2ccccc2S3)oc(N2CCOCC2)c1 + NC(=O)Nc1cc(-c2cccc(F)c2)sc1C(=O)N[C@H]1CCCNC1 [AZD7762] (partner 0.2 µM) has what recorded relative viability?
Output: 0.697

* * *

So I've got a bunch of compounds here, and I need their relative viability values.
# System: NCI-H1915
# method: relative viability (nuclei count vs DMSO), 5 days (fraction); higher = more cells survive
# experimental-context: first compound 8 µM
Answers are plain numbers.

Input: Given the entry O=c1cc(-c2cccc3c2Sc2ccccc2S3)oc(N2CCOCC2)c1 + CC1(C)CCC(c2ccc(Cl)cc2)=C(CN2CCN(c3ccc(C(=O)NS(=O)(=O)c4ccc(N[C@H](CCN5CCOCC5)CSc5ccccc5)c(S(=O)(=O)C(F)(F)F)c4)cc3)CC2)C1 [Navitoclax] (partner 0.5 µM) , report its measured relative viability.
Output: 0.872

---
Input: For the compound O=c1cc(-c2cccc3c2Sc2ccccc2S3)oc(N2CCOCC2)c1 + Cc1nc(Nc2ncc(C(=O)Nc3c(C)cccc3Cl)s2)cc(N2CCN(CCO)CC2)n1 [Dasatinib] (partner 0.075 µM) , what relative viability is on record?
Output: 0.337

* * *

For each entry below, report its relative viability value.
# System: NCI-H2087
# method: relative viability (nuclei count vs DMSO), 5 days (fraction); higher = more cells survive
# experimental-context: first compound 0.08 µM

Input: Recorded relative viability of O=c1cc(-c2cccc3c2Sc2ccccc2S3)oc(N2CCOCC2)c1 + COc1cc2c(Oc3ccc(NC(=O)C4(C(=O)Nc5ccc(F)cc5)CC4)cc3F)ccnc2cc1OCCCN1CCOCC1 [Foretinib] (partner 0.25 µM) , please.
Output: 0.976

Input: Please report the recorded relative viability for COc1nc(C)cnc1NS(=O)(=O)c1cccnc1-c1ccc(-c2nnco2)cc1 [Zibotentan] + NC(=O)Nc1cc(-c2cccc(F)c2)sc1C(=O)N[C@H]1CCCNC1 [AZD7762] (partner 0.2 µM) .
Output: 1.28

Input: What measured relative viability goes with COc1nc(C)cnc1NS(=O)(=O)c1cccnc1-c1ccc(-c2nnco2)cc1 [Zibotentan] + O=C(c1cc(Cc2n[nH]c(=O)c3ccccc23)ccc1F)N1CCN(C(=O)C2CC2)CC1 [Olaparib] (partner 8 µM) ?
Output: 0.658

Input: Could you share which relative viability value was measured for O=c1cc(-c2cccc3c2Sc2ccccc2S3)oc(N2CCOCC2)c1 + CCNC(=O)c1noc(-c2cc(C(C)C)c(O)cc2O)c1-c1ccc(CN2CCOCC2)cc1 [Luminespib] (partner 0.01 µM) ?
Output: 0.2

For each listed entry, give its relative viability.
1. O=c1cc(-c2cccc3c2Sc2ccccc2S3)oc(N2CCOCC2)c1 + Cc1nc(NC(=O)N2CCC[C@H]2C(N)=O)sc1-c1ccnc(C(C)(C)C(F)(F)F)c1 [Alpelisib] (partner 2 µM)
2. COc1nc(C)cnc1NS(=O)(=O)c1cccnc1-c1ccc(-c2nnco2)cc1 [Zibotentan] + COc1cc2c(Oc3ccc(NC(=O)C4(C(=O)Nc5ccc(F)cc5)CC4)cc3F)ccnc2cc1OCCCN1CCOCC1 [Foretinib] (partner 0.25 µM)
3. COc1nc(C)cnc1NS(=O)(=O)c1cccnc1-c1ccc(-c2nnco2)cc1 [Zibotentan] + CC(C)C[C@H](NC(=O)[C@H](Cc1ccccc1)NC(=O)c1cnccn1)B(O)O [Bortezomib] (partner 0.002 µM)
4. COc1nc(C)cnc1NS(=O)(=O)c1cccnc1-c1ccc(-c2nnco2)cc1 [Zibotentan] + N=C(N)NC(=N)NCCc1ccccc1 [Phenformin] (partner 250 µM)
5. COc1nc(C)cnc1NS(=O)(=O)c1cccnc1-c1ccc(-c2nnco2)cc1 [Zibotentan] + O=C(CCCCCCC(=O)Nc1ccccc1)NO [Vorinostat] (partner 1 µM)

Output:
1.22
1.22
0.939
0.423
0.719
